Tested on: Chordin-like protein 2 (CHRDL2)
Assay text: CHRDL2 small-molecule binders, primary screen, biochemical, small-molecule microarray, 635 nm fluorescence (AID 1126);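 note: printed compound slides probed with Chrdl2 protein at 4 µg/mL for 1 h at 4 C; score merges 667 nm emission intensity with signal to noise over three replicate slides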
Experimental parameters: small-molecule microarray binding, fluorescence 635 nm; higher = more signal
Outcome measure: composite z-score
Lab note: record just the number, no unit beside it.

1. C[C@H]1NC(=O)C([C@@H](C)OCc2ccccc2)NC(=O)[C@@]23C(=O)N[C@@H](Cc4ccccc4)C2[C@H](C)[C@@]2(C)O[C@H]2C3/C=C/C/C=C\CNC1=O (stereo not given in full): 0.601
2. C=CC(CO)NC(=O)OCC1c2ccccc2-c2ccccc21 (stereo not given): 0.566
3. COc1ccc(CCNC(=O)[C@@]2(Sc3ccc(C)cc3)CC(=O)N(C(C)C)[C@@H]2c2ccc(CO)cc2)cc1: -2.15
4. C=CCNC(=O)[C@H]1[C@@H]2C(=O)O[C@@H](c3ccccc3)[C@@H](c3ccccc3)N2[C@@H](c2ccc(O)cc2)[C@]12C(=O)Nc1ccc(C#CC3=CCCCC3)cc12: 0.62
5. COC(=O)[C@@H]1N=C(c2ccc(OCCCO)cc2)O[C@@H]1c1ccccc1CN=[N+]=[N-]: -0.689
6. Cc1ccc(S[C@]2(C(=O)NC3CC3)CC(=O)N(Cc3cc(C(F)(F)F)cc(C(F)(F)F)c3)[C@@H]2c2ccc(CO)cc2I)cc1: 0.452
7. C[C@@H](OCc1ccccc1)C1NC(=O)[C@@]23C(=O)N[C@@H](Cc4ccccc4)C2[C@H](C)[C@@]2(C)O[C@H]2C3/C=C/C/C=C\CNC(=O)[C@H](Cc2ccccc2)NC1=O (stereo not given in full): 0.665
8. CCCC[C@@H](O)C1=C(COC)Cn2c(=O)n(-c3ccccc3)c(=O)n2[C@H]1CO: -0.0073

Here is the next item to consider.
// composite z-score lookup, molecule = O=C1N(CCS(=O)(=O)c2ccccc2)c2ccccc2[C@@H]2OC(c3ccc(OCCCO)cc3)=N[C@]12CCS(=O)(=O)c1ccccc1 , result: 1.1

###

z-score reference
Experimental system: NADPH oxidase 4 (Homo sapiens) (UniProt Q9NPH5)
Sequence (Q9NPH5 whole entry, looked up): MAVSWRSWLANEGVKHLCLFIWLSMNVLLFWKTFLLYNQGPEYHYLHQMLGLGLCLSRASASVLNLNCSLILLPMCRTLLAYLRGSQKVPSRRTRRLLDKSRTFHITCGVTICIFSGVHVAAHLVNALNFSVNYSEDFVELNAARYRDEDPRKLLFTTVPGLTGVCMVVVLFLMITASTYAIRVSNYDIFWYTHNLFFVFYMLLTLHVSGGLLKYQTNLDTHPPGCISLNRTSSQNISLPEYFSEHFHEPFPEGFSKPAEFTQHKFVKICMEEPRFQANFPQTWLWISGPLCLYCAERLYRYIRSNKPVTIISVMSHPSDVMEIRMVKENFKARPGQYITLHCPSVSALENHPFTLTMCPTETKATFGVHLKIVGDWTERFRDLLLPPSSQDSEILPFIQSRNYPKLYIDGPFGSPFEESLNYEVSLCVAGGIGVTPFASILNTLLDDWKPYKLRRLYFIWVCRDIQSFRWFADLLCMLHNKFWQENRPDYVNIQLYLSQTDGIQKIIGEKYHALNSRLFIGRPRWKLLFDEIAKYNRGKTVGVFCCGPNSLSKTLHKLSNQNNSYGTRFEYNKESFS
Assay text: NOX4-dependent H2O2 signal modulators, primary screen, NOX inhibitor project, cell-based, HEK293-NOX4, tetracycline-induced, Amplex Red fluorescence (AID 1160)
Experimental parameters: 45 min, higher = more signal, called active from +8 up or from −8 down
Please respond with just the number, no unit label.

Reference set, count: 3
1. O=C1C2C=CC(C(O)c3ccc([N+](=O)[O-])cc3)N(Nc3ccccc3)C2C(=O)N1c1ccccc1 (stereo not drawn): -4.69
2. CC(=O)NCCCC[C@@H]1NC(=O)[C@H]2C[C@@H](C(=O)NCCCCCC[N+](C)(C)C)[C@@H](c3ccc(O)cc3)N2C1=O: 0.288
3. NC(=O)[C@@]1(CCS(=O)(=O)c2ccccc2)COC(c2ccc(OCCCO)cc2)=N1: -0.383

Entry O=C1O[C@@H](c2ccccc2)[C@@H](c2ccccc2)N2[C@@H](c3ccc(OCCO)cc3)[C@]3(C(=O)Nc4ccc(C#CCCO)cc43)[C@@H](C(=O)Nc3nc4ccccc4s3)[C@H]12 under NADPH oxidase 4 (Homo sapiens) (UniProt Q9NPH5) had z-score of 0.868

z-score value, target or system NADPH oxidase 4 (Homo sapiens) (UniProt Q9NPH5), for N[C@@H](Cc1ccccc1)Cn1cc(C2(O)CCCCC2)nn1 : 1.51

Measured z-score (NADPH oxidase 4 (Homo sapiens) (UniProt Q9NPH5)), entry CN1C(=O)C2C(C1=O)C1C=C(c3ccc(CO)cc3)C2C(c2cccs2)N1C (stereo not drawn) : -1.96

Item O=c1cccc(-c2ccccc2C(F)(F)F)o1 was tested on NADPH oxidase 4 (Homo sapiens) (UniProt Q9NPH5); the reported z-score is 0.0518

// assay NADPH oxidase 4 (Homo sapiens) (UniProt Q9NPH5), entry CCOC(=O)C1=CC[C@@H](c2ccccc2)N(S(=O)(=O)C[Si](C)(C)C)[C@H]1c1ccccc1 , z-score value = -1.26
